koff overview
# SYSTEM_UNDER_TEST: T1, purified recombinant 161P2F10B extracellular domain (Tag5-161P2F10B ECD, amino acids 46-875) (human, UniProt O14638 46-875)
# T1 construct: also called full length ECD
# ASSAY_SUMMARY: SPR (BIAcore), MAb captured on chip, recombinant 161P2F10B injected, 1:1 fit;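 also: purified human MAbs immobilised by capture on a CM5 chip surface, about 150 RU of antibody per cycle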

# BINDER, koff (s⁻¹)
measured = [
    ("Ha16-1(3,5)27.1 (antibody, V domains shown, VH entry holds part of the leader; both hold a portion of the constant region) VH: LVESGAEVKKPGESLKISCKGSGYRFTSYWIGWVRQMPGKGLEWMGIIYPGDSDTRYSPSFQGQVTISADKSISTAYLQWSSLKASDTAMYYCARKDYYYYSMDVWGQGTTVTVSS VL: GQSALTQPASVSGSPGQSITISCTGTSSDVGGYNYVSWYQQHPGQAPKLLIYGVNIRPSGVSTRFSGSKSGNTASLTISGLQAEDEADYYCSSYTRSSILVVFAGGTKLTVLG", 0.000177),
    ("H16-7.213 (antibody, V domains shown) VH: WGLSEVSCKASGYTFTGYYMHWVRQAPGQGLEWMGWINPNSGGTNYAQKFQGRVTMTRDTSISTAYMELSRLRSDDTAVYYCARELRYFGWLLSSLDYWGQGTLVTVSS VL: DIQMTQSPSSLSASVGDRVTITCRASQSISSYLNWFQQKPGKAPKLLIYAASSLQSGVPSRFSGSESGTDFTLTISSLQPEDFATYSCQQSYSFPLTFGGGTKVEIKR", 0.000509),
    ("H16-9.33 (antibody, V domains shown) VH: EVQLLESGPGLVKPSQTLSLTCAISGDSVSSNSAAWNWIRQSPSRGLEWLGRTYYRSKYYNAYPVSVKSRITINPDTSKNQFSLQLNSVTPEDTAVYYCAREAGGWFDPWGQGTLVTVSS VL: DIQMTQSPSSVSASVGDRVTITCRANQGIRSWLAWYQQKPGKAPKLLIYAASSLQSGVPSRFSGSGSGTDFTLTISSLQPEDFATYYCQQANSFPPTFGGGTKVEIKR", 0.000257),
]

All values here come from patent US20090022663A1.
